# Tested on: S. aureus DSM 20231;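 further: first quartile when negative (synergy) and third quartile when positive (antagonism)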
# Assay Text: Bliss interaction score (quartile over a dose matrix) (fitness difference); higher = more antagonism (negative = synergy)
Assign Satisfied whenever Bliss interaction score does not fall below 0.03; assign Not satisfied whenever it does.

# Molecule, Class
measured = [
    ("CC(=O)O[C@H]1C[C@@]2(C)[C@@H](C[C@@H](O)[C@H]3[C@@]4(C)CC[C@@H](O)[C@@H](C)[C@@H]4CC[C@@]32C)/C1=C(\\CCC=C(C)C)C(=O)O [Fusidic acid] + C[C@@H](O)[C@H]1C(=O)N2C(C(=O)O)=C(SCCNC=N)C[C@H]12 [Imipenem]", "Not satisfied"),
    ("CC(=O)O[C@H]1C[C@@]2(C)[C@@H](C[C@@H](O)[C@H]3[C@@]4(C)CC[C@@H](O)[C@@H](C)[C@@H]4CC[C@@]32C)/C1=C(\\CCC=C(C)C)C(=O)O [Fusidic acid] + Cn1nnc(-c2ccc(-c3ccc(N4C[C@H](CO)OC4=O)cc3F)cn2)n1 [Tedizolid]", "Not satisfied"),
    ("CN[C@H](CC(C)C)C(=O)N[C@H]1C(=O)N[C@@H](CC(N)=O)C(=O)N[C@H]2C(=O)N[C@H]3C(=O)N[C@H](C(=O)N[C@H](C(=O)O)c4cc(O)cc(O)c4-c4cc3ccc4O)[C@H](O)c3ccc(c(Cl)c3)Oc3cc2cc(c3O[C@@H]2O[C@H](CO)[C@@H](O)[C@H](O)[C@H]2O[C@H]2C[C@](C)(N)[C@H](O)[C@H](C)O2)Oc2ccc(cc2Cl)[C@H]1O [Vancomycin] + CC1=C\\[C@@H](O)CC(=O)Cc2nc(co2)C(=O)N2CCC=C2C(=O)O[C@H](C(C)C)[C@H](C)/C=C/C(=O)NC\\C=C\\1", "Satisfied"),
    ("O=C(O[C@@H]1Cc2c(O)cc(O)cc2O[C@@H]1c1cc(O)c(O)c(O)c1)c1cc(O)c(O)c(O)c1 [EGCG] + Cn1nnc(-c2ccc(-c3ccc(N4C[C@H](CO)OC4=O)cc3F)cn2)n1 [Tedizolid]", "Satisfied"),
    ("COc1c(N2C[C@@H]3CCCN[C@@H]3C2)c(F)cc2c(=O)c(C(=O)O)cn(C3CC3)c12 [Moxifloxacin] + CC1(C)S[C@@H]2[C@H](NC(=O)Cc3ccccc3)C(=O)N2[C@H]1C(=O)O [PenicillinG]", "Satisfied"),
    ("CC[C@H]1OC(=O)[C@H](C)[C@@H](O[C@H]2C[C@@](C)(OC)[C@@H](O)[C@H](C)O2)[C@H](C)[C@@H](O[C@@H]2O[C@H](C)C[C@H](N(C)C)[C@H]2O)[C@](C)(OC)C[C@@H](C)C(=O)[C@H](C)[C@@H](O)[C@]1(C)O [Clarithromycin] + O=C(O)[C@H]1/C(=C/CO)O[C@@H]2CC(=O)N21 [Clavulanic]", "Not satisfied"),
    ("C[C@@H](O)[C@H]1C(=O)N2C(C(=O)O)=C(SCCNC=N)C[C@H]12 [Imipenem] + C[C@H]1COc2c(N3CCN(C)CC3)c(F)cc3c(=O)c(C(=O)O)cn1c23 [Levofloxacin]", "Not satisfied"),
    ("N[C@@H]1CONC1=O [CycloserineD] + COc1c(N2C[C@@H]3CCCN[C@@H]3C2)c(F)cc2c(=O)c(C(=O)O)cn(C3CC3)c12 [Moxifloxacin]", "Not satisfied"),
    ("N[C@@H]1CONC1=O [CycloserineD] + C[n+]1ccc(-c2cc[n+](C)cc2)cc1 [Paraquat]", "Satisfied"),
    ("C[C@@H](O)[C@H]1C(=O)N2C(C(=O)O)=C(SCCNC=N)C[C@H]12 [Imipenem] + Cn1nnc(-c2ccc(-c3ccc(N4C[C@H](CO)OC4=O)cc3F)cn2)n1 [Tedizolid]", "Not satisfied"),
    ("CCN(CC)CCOc1ccc(C(=C(Cl)c2ccccc2)c2ccccc2)cc1 [Clomiphene] + COc1cc(Cc2cnc(N)nc2N)cc(OC)c1OC [Trimethoprim]", "Satisfied"),
    ("CC(=O)O[C@H]1C[C@@]2(C)[C@@H](C[C@@H](O)[C@H]3[C@@]4(C)CC[C@@H](O)[C@@H](C)[C@@H]4CC[C@@]32C)/C1=C(\\CCC=C(C)C)C(=O)O [Fusidic acid] + CN[C@@H]1[C@H](O[C@H]2[C@H](O[C@H]3[C@H](O)[C@@H](O)[C@H](N=C(N)N)[C@@H](O)[C@@H]3N=C(N)N)O[C@@H](C)[C@]2(O)C=O)O[C@@H](CO)[C@H](O)[C@H]1O [Streptomycin]", "Satisfied"),
    ("CC(=O)O[C@H]1C[C@@]2(C)[C@@H](C[C@@H](O)[C@H]3[C@@]4(C)CC[C@@H](O)[C@@H](C)[C@@H]4CC[C@@]32C)/C1=C(\\CCC=C(C)C)C(=O)O [Fusidic acid] + CC1=C\\[C@@H](O)CC(=O)Cc2nc(co2)C(=O)N2CCC=C2C(=O)O[C@H](C(C)C)[C@H](C)/C=C/C(=O)NC\\C=C\\1 [Virginiamycin M1]", "Satisfied"),
    ("CC(=O)OC[C@H]1O[C@@H]([S-])[C@H](OC(C)=O)[C@@H](OC(C)=O)[C@@H]1OC(C)=O.CCP(CC)CC.[Au+] [Auranofin] + CN(N=O)C(=O)N[C@@H](C=O)[C@@H](O)[C@H](O)[C@H](O)CO [Streptozotocin]", "Not satisfied"),
    ("CC(=O)O[C@H]1C[C@@]2(C)[C@@H](C[C@@H](O)[C@H]3[C@@]4(C)CC[C@@H](O)[C@@H](C)[C@@H]4CC[C@@]32C)/C1=C(\\CCC=C(C)C)C(=O)O [Fusidic acid] + CC(=O)NC[C@H]1CN(c2ccc(N3CCOCC3)c(F)c2)C(=O)O1 [Linezolid]", "Not satisfied"),
]
